- System Under Test: T1, human ActRIIA (human, UniProt P27037 20-135, limits assumed);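 note: immunoglobulin held at a fixed level and mixed with serially diluted antigen overnight at 4 °C to equilibrium, then unbound antibody captured on antigen-coated plates and read by electrochemiluminescence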
- T1 construct: antigen in MSD-SET; also called ACVR2A; ActR2A
- T1 sequence (P27037 20-135 limits assumed): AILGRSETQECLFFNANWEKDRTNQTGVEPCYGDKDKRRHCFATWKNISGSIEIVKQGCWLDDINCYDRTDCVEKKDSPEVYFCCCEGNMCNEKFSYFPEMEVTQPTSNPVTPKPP
- Test Details: MSD-SET
Assay Readout: Kd (nM)
Write the value in nM as a bare number.

Schwardamaga, Mouse IgG2a-PALALA (antibody, V domains shown, mouse IgG2a constant region with PALALA) VH: QVQLVQSGAEVKKPGSSVKVSCKASGYTFTSSYINWVRQAPGQGLEWMGTINAVSGSTSYAQKFQGRVTITADTSTSTAYMELSSLRSEDTAVYYCARGGWFDYWGQGTLVTVSS VL: QSALTQPRSVSGSPGQSVTISCTGTSSDVGSANYVNWYQQHPGKAPKPMIYGVSRRPSGVPDRFSGSKSGNTASLTISGLQAEDEADYYCGTFAGGKYYGVFGGGTKLTVL | 0.039
Schwardamaga, Human IgG1-PALALA-YTE (antibody, V domains shown, human IgG1 with PA-LALA (L234A/L235A/P329A) and YTE (M252Y/S254T/T256E), EU numbering) VH: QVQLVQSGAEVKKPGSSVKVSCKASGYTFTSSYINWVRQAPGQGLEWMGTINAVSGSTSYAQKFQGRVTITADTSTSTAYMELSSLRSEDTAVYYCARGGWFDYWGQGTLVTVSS VL: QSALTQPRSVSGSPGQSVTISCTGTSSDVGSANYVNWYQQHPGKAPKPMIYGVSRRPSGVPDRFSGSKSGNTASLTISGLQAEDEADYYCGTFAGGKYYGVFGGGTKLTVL | 0.04
Soidawürstle, Human IgG1-PALALA (antibody, V domains shown, human IgG1 with PA-LALA (L234A/L235A/P329A), EU numbering) VH: QVQLVQSGAEVRKPGSSVKVSCKASGYTFTSSYINWVRQAPGQGLEWMGTINPVSGSTSYAQKFQGRVTITADTSTSTAYMELSSLRSEDTAVYYCARGGWFDYWGQGTLVTVSS VL: QSALTQPRSVSGSPGQSVTISCTGTSSDVGSYNRVNWYQQHPGKAPKLMIYGVSKRESGVPDRFSGSKSGNTASLTISGLQAEDEADYYCGTFAGGRYYGVFGGGTKLTVL | 0.025

If you can, please state the reported Kd value of Soidawürstle, Mouse IgG2a-PALALA (antibody, V domains shown, mouse IgG2a constant region with PALALA) VH: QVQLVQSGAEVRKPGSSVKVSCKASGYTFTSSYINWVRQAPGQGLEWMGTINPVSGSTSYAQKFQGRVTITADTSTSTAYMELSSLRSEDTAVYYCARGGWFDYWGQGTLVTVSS VL: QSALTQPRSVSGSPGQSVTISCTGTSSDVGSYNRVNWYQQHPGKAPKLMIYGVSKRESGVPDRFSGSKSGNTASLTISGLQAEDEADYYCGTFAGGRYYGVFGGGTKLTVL . 0.027
